Data credit: PubChem BioAssay

Experiment: small-molecule microarray binders of probe aNog, primary screen, biochemical, biotinylated probe, 635/667 nm fluorescence (AID 1115);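 also: probe is biotinylated aNog protein used at 0.15 µg/mL for 1 h at 4 C; z-score combines 667 nm fluorescence of each spot with its signal to noise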
Details: higher = more signal
PROPERTY: composite z-score
# print the numeric value only

These recorded examples may help you get a feel for the data.
COMPOUND | composite z-score
CC(C)[Si](C#CCCCC#N)(O[C@H](c1ccccc1)c1cn([C@H](C)c2ccccc2)nn1)C(C)C | -0.262
COC(=O)[C@@]1(Cc2ccc(OC)cc2)[C@H]2c3cc(C(=O)N(C)C)n(Cc4ccsc4Br)c3C[C@H]2CN1C(=O)c1ccccc1 | 1.61
CN(C)CCCC[C@@H]1NC(=O)[C@@H]2C[C@H](C(=O)NCc3ccc(F)cc3)[C@H](c3ccc(O)cc3)N2C1=O | -0.0503
C=CC[C@@]1(C(=O)O)N=C(c2ccc(OCCCO)cc2)O[C@@H]1c1ccccc1CN=[N+]=[N-] | 0.0139
C=C(COC)C(=O)CC[C@@H](OC(C)=O)c1ccc(OCCO)cc1 | 0.197

For the compound C=CCC(OC(C)=O)[C@@H]1[C@@H](N(Cc2cc3ccccc3o2)C(=O)c2ccc(-c3ccccc3)cc2)c2cc(OCCCO)ccc2N1C(=O)c1ccc2ccccc2n1 (stereo partly specified) , what composite z-score is on record?
-0.961

Entry `C=C(CCCC)C(=O)CC[C@H](OC(=O)c1cccnc1)c1ccc(CO)o1` has what composite z-score?
-0.116

Given the compound `CN(C)CCCNC(=O)[C@@H]1c2ccccc2C(=O)N(C2Cc3ccccc3C2)[C@H]1c1ccc(CO)cc1` , what is its reported composite z-score?
0.467

Any idea what composite z-score was measured for `NCCCC[C@@H]1NC(=O)[C@H]2C[C@@H](C(=O)O)[C@@H](c3cccc(OCCO)c3)N2C1=O` ?
1.33

What does the data say about its composite z-score? Entry: CC(=O)n1cc(C(O)C2C=CC3C(=O)N(c4ccccc4)C(=O)C3N2Nc2ccccc2F)c2ccccc21 (stereo unspecified)
-0.305

// composite z-score lookup, key: `O=C1N(CCS(=O)(=O)c2ccccc2)c2ccccc2[C@@H]2OC(c3ccc(OCCCO)cc3)=N[C@]12CCS(=O)(=O)c1ccccc1`
0.0373
